The reported measurements were obtained from a melting point compilation (Tetko et al.; mined from patent text by program, amines drawn as free bases though some values may be those of a salt).

outcome_measure: melting point

Guide cases for melting point, answers given:
CC(=O)C(C(C)=O)C(C(C)=O)C(C)=O = 193 to 194 °C
C=CCOC(=O)C1N2C(=O)C(NC(=O)CC(=O)OCC)C2S(=O)(=O)C1(C)C (stereo unspecified) = 114 to 115 °C
O=C(OCCOc1ccccc1)c1cccc(NC(=O)C(CS)Cc2ccccc2)c1 (stereo unspecified) = 98 to 100 °C
CCOC(=O)c1cc2cc(NC(C)=O)ccc2[nH]1 = 202 to 203 °C
OC(CC1CCN(CC2CC2)CC1)(c1ccc(F)cc1)c1ccc(F)cc1 = 119 to 121 °C

Give one value of melting point per listed compound.
1. C=CCc1c(OC)cc(Cc2cnc(N)nc2N)cc1OC
2. O=C(NC1(C2CC2)CC1)c1c(NC(=O)c2cc(C(F)(F)F)nn2-c2ncccc2Cl)c(Cl)cc2cn[nH]c12
3. CCOC(=O)CCC(=O)[C@H](Cc1ccccc1)NC(=O)OC(C)(C)C
4. CCOC(=O)C(O)C1OC(c2ccccc2Cl)c2cc(Cl)ccc2N(C(C)C)C1=O (stereo unspecified)
5. COc1cc2c(cc1OC)C1=C(C#N)SCC(=O)N1CC2

Ans:
185 to 187 °C
> 250 °C
56 to 58 °C
126 to 128 °C
186 to 187 °C

###

Provide the reported melting point of each item.

List melting point for every entry below, keeping the order given.
1. Cc1c(SCCSCc2ccncc2)ccnc1CNc1cnc2ccccc2c1
2. CS(=O)(=O)Nc1cccc(Nc2nc(OC3CCCC3)c3nc[nH]c3n2)c1
3. Cc1cccc2nc(C(C)(C)NC(=O)COC3c4ccccc4-c4ccccc43)oc(=O)c12
4. COC1(F)C=CC=C(c2cc(CBr)c(=O)n(Cc3ccc(F)cc3)n2)C1 (stereo not given)
5. COc1cccc2c(Nc3ccccc3C)c(C(=O)CCC(=O)O)cnc12
6. CC(=O)C(CCCc1ccccc1)n1ncc2c(=O)[nH]c(Cc3ccc(-c4cccnc4)cc3)nc21 (stereo not given)
7. COc1cccc2c1CCC(CN1CCC(O)(c3ccccc3)CC1)C2=O (stereo not given)
8. CN(C)c1ccc(-n2ccn(C3CCc4ccccc4C3)c2=S)nn1 (stereo not given)

Ans:
1. 123 to 126 °C
2. 137 to 140 °C
3. 162 to 163 °C
4. 120 to 125 °C
5. 263 to 265 °C
6. 108 °C
7. 163 to 165 °C
8. 198 to 199 °C

Would you mind listing melting point for each of the following compounds?
1. O=[N+]([O-])c1ccc(CO)c(CCO)c1
2. O=C(c1ccc2ccccc2n1)N1CCN=C1Nc1c(Cl)cccc1Cl

Ans:
["79 to 81 °C", "194 to 196 °C"]

###

outcome_measure: melting point

Examples from the recorded data:
COc1ccccc1C1Cc2c(ccn2C)C2C(=O)NC(=O)C12 (stereo not drawn) = 208 to 212 °C
O=C(O)Cc1c(C(=O)c2ccc(OCc3ccccc3)cc2)[nH]c2cc(Cl)ccc12 = 220 to 222 °C
CS(=O)(=O)c1ccc(-c2[nH]nc(C(CCCO[N+](=O)[O-])=NO)c2-c2ccc(C#N)cc2)cc1 = 146 to 147 °C
CC(Cc1ccc(Oc2cc(N3CCN(Cc4ccccn4)CC3)nc(N)n2)cc1)(Oc1ccccc1)C(=O)O (stereo not drawn) = 138 to 139 °C
CC(=O)c1nn(-c2c(Cl)cc(C(F)(F)F)cc2Cl)c(N)c1S(=O)(=O)c1ccc(Cl)cc1 = 158 °C

Lab note: each compound below needs its melting point filled in.
1. Cn1c(COc2ccc(CC3SC(=O)NC3=O)cc2)nc2ccc(-c3ccccc3)nc21 (stereo not drawn)
2. CS(=O)(=O)c1ccc(-c2cc(/C=C\CCO[N+](=O)[O-])nn2C2CCCCC2)cc1
3. Cc1cc(C)cc(-c2cc(C)cn2-c2ccc(S(N)(=O)=O)cc2)c1
4. CCOC(=O)COc1ccc(NC(C)=O)cc1NC(=O)c1ccc(OCCCCc2ccccc2)cc1
5. CS(=O)(=O)c1ccc(-c2coc3ccc(-c4nnc(N)o4)cc23)cc1
6. NC(=O)c1csc(-c2cc3c(Oc4ccc(Cl)cc4)cncc3s2)n1
7. CCOC(=O)COc1ccc(S(=O)CCNS(=O)(=O)c2ccccc2)cc1 (stereo not drawn)
8. CNC(=O)CC1CN=C(c2cc3cc(Oc4ccc(S(C)(=O)=O)nc4)c(F)c(OCCOC)c3[nH]2)S1 (stereo not drawn)

Ans:
["211 to 213 °C", "129 to 130 °C", "163 to 166 °C", "130 to 132 °C", "274 to 275 °C", "215 to 218 °C", "116 to 118 °C", "151 to 152 °C"]

// input: 5 compounds below; output: melting point for each
1. O=C(NCc1ccccc1)C1c2ccccc2-c2ccccc21
2. CCCc1[nH]c2cc(C(N)=O)ccc2c1C(=O)C1CCCCC1
3. C[C@H]([C@H](O)c1ccc(O)c(O)c1)N1CCC(O)(c2ccccc2)CC1 (relative stereo)
4. N#CC(=C1CCCCCN1)c1ccccc1
5. Cc1c(C#N)ccc2nc(N)nc(N)c12

Ans:
1. 195 to 200 °C
2. 245 to 247 °C
3. 167 to 168 °C
4. 108 to 113 °C
5. > 270 °C
